target system: PDZ protein (GST-PDZ fusion) (Homo sapiens)
Construct: made in house; host or cells: E. coli (DH5alpha, BL21 or JM109)
Sequence (Q5TCQ9 1-1481): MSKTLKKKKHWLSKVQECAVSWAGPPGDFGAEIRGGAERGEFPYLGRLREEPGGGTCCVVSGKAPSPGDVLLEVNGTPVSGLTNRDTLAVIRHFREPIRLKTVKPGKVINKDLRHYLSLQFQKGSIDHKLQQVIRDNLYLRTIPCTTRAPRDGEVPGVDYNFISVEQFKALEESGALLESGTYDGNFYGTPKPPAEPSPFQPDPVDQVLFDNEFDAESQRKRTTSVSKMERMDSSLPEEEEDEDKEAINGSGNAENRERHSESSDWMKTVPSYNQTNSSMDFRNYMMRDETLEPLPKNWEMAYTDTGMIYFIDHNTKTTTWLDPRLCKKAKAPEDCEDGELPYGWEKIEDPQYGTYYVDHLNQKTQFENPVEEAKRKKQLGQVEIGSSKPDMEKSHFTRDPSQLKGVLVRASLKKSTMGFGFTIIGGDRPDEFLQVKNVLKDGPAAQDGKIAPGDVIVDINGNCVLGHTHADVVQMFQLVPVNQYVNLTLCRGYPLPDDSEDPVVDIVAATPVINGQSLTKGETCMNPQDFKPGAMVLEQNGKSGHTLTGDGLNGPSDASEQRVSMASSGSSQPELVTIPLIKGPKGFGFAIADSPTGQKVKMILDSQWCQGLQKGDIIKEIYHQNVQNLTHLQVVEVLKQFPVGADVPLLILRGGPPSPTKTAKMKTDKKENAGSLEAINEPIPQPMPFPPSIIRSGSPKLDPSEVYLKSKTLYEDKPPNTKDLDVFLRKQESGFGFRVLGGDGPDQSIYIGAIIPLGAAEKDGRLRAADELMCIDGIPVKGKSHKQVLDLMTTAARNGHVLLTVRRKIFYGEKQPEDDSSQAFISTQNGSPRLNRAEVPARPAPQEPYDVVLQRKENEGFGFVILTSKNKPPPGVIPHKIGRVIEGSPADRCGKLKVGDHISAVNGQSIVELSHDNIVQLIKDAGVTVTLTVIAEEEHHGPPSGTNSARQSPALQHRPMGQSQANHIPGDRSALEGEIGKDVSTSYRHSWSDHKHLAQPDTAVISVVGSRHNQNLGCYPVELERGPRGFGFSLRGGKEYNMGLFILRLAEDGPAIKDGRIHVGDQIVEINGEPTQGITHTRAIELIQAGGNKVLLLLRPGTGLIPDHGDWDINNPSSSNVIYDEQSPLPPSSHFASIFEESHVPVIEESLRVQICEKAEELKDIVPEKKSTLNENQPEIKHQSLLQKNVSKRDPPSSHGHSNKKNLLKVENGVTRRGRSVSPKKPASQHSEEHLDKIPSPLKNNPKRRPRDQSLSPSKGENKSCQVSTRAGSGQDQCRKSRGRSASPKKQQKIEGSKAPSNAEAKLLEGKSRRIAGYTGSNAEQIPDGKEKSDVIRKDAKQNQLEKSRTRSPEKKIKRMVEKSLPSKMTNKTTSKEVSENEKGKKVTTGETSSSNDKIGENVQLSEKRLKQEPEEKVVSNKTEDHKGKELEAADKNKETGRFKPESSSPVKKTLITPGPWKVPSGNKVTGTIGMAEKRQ
assay explanation: G' assay (10 uM PL peptide), results of TABLE 7 and TABLE 12
Type: binding
condition label: PDZ KIAA1634, PDZ Domain 5
Ends that are not written are not given here. * marks the point of attachment. Biotin = O=C1N[C@H]2[C@H](CS[C@H]2CCCCC(=O)*)N1
Parameter: Classification. Scope: all listed entries.

> print(dat)
                             chain.sequence  measured.metric  recorded.measurement
1  QATSRNGHSARQHVVADTEL (Biotin-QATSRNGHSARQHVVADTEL) [CD34]   Classification       1 (A450 nm 0-1)
2  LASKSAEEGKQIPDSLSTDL (Biotin-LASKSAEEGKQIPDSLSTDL) [Dock2]   Classification       1 (A450 nm 0-1)
3  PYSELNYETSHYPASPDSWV (Biotin-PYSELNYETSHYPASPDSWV) [catenin - delta 2]   Classification       3 (A450 nm 2-3)
4                      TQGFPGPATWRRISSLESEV   Classification       1 (A450 nm 0-1)
5  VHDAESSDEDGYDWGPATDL (Biotin-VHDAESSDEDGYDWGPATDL) [zona occludens 3 (ZO-3)]   Classification       1 (A450 nm 0-1)
6  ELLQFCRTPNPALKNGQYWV (Biotin-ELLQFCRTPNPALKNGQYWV)   Classification       2 (A450 nm 1-2)

# sequence ARHRVTSYTSSSVNVSSNL (Biotin-ARHRVTSYTSSSVNVSSNL) [IL-8RB] ; its Classification = 1 (A450 nm 0-1)
